Below, each entry is listed alongside its reported kon.
- TARGET_SYSTEM: T1, canine NGF tagged at the C-terminus with the Flag tag (canine, UniProt A0A8I3PYI3 122-241)
- T1 construct: mature; Expressed with baculovirus technology; also called feline NGF (processed form identical)
- T1 sequence (A0A8I3PYI3 entry or part of it): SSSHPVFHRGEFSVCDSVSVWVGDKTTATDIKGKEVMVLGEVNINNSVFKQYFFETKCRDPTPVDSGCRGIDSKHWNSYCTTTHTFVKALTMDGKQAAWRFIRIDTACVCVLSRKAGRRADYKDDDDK
- EXPERIMENT: SPR off-rate screen, Fab-SASA on BSA chip
READOUT_LABEL: kon (M⁻¹ s⁻¹)

BINDER	READOUT_VALUE
felinized clone 101 Fab-SASA variant S34G (VL) (Fab, V domains shown, not shown: small tags and cut ends) VH: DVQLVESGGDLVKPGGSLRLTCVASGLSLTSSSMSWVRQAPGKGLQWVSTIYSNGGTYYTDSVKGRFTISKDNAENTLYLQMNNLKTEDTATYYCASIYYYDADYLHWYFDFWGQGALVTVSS VL: EIQMTQSPTSLSASVGDRVTITCRASEGISNNLGWYQQTPGKAPKLLIYATSNLHSGVPSRFSGSGSGTDFTLTISSLQPEDFATYYCQQGYKWPLTFGGGTKLEITR	456000
felinized clone 101 Fab-SASA variant H55I (VL) (Fab, V domains shown, not shown: small tags and cut ends) VH: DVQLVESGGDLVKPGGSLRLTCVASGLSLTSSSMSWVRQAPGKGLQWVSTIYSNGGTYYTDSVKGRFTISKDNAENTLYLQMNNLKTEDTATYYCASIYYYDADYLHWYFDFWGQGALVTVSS VL: EIQMTQSPTSLSASVGDRVTITCRASEGISNNLSWYQQTPGKAPKLLIYATSNLISGVPSRFSGSGSGTDFTLTISSLQPEDFATYYCQQGYKWPLTFGGGTKLEITR	334000
felinized clone 101 Fab-SASA variant D104N (VH) (Fab, V domains shown, not shown: small tags and cut ends) VH: DVQLVESGGDLVKPGGSLRLTCVASGLSLTSSSMSWVRQAPGKGLQWVSTIYSNGGTYYTDSVKGRFTISKDNAENTLYLQMNNLKTEDTATYYCASIYYYDANYLHWYFDFWGQGALVTVSS VL: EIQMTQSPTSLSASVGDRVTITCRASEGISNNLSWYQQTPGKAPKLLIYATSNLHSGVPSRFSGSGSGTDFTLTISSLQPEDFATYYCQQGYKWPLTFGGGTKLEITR	239000
